Assign Binding affinity to each entry below.
target: acetylcholine receptor; assay: SPR, AchR immobilised on chip, peptide at 10 uM

Worked examples, 2 binders total:
KRRRRR [6mer-2-309] | 151 RU
KSLQRK [6mer-2-279] | 148 RU

Give Binding affinity for each of the items listed below.
1. RWVSKK [6mer-2-331]
2. KQICKK [6mer-2-302]

Ans:
148 RU
148 RU
